- Tgt: T1, human ACTH 1-39 (human)
- T1 peptide: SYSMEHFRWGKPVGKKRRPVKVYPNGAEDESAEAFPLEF
- Protocol Summary: cell-based or functional assay
List of MC1R IC50 values.

Binder | MC1R IC50 [nM]
Ab4 (antibody, human IgG1, kappa, N297A, V domains shown, rabbit/human chimeric antibody, made in HEK-293) VH: QSVEESGGRLVTPGTPLTLTYTVSGFSLSKHDMIWVRQAPGKGLESIGIIYDDGDTYYANWAKGRFTISKTSTTVDLKIISPTTEDTATYFCVKGVSNIWGPGTLVTVSS VL: DVVMTQTPASVEAAVGGTVTIKCRASQSISVYLAWYQQKAGQPPKLLIYQASKLASGVPSRFKGSGSGTEFTLTISDLECADAATYYCQSYDGSSSSSYGVGFGGGTEVVVKR | 5.73
Ab10 (antibody, human IgG1, kappa, N297A, V domains shown, rabbit/human chimeric antibody, made in HEK-293) VH: QSVEESGGRLVTPGTPLTLTCTVSGFSLSSADMIWVRQAPGKGLESIGMIYDDGDTYYATWAKGRFTISKTSTTVDLKIISPTTEDTATYFCVKGVSSVWGQGTLVTVSS VL: DVVMTQTPASVEAAVGGTVTINCQASENIYRSLAWYQQKPGQPPKLLIYSASTLASGVPSRFKGSGSGTEFTLTISDLECADAATYYCQSYDGSSSSSYGVGFGGGTEVVVKR | 2.14
Ab6 (antibody, human IgG1, kappa, N297A, V domains shown, rabbit/human chimeric antibody, made in HEK-293) VH: QSVEESGGRLVTPGTPLTLTCTVSGFSLTDYAMSWVRQAPGEGLEWIGIISDSGSTYYASWAKGRFTFSKTSTTVDLRITSPTTEDTATYFCAREPEYGYDEYGDWVSDLWGPGTLVTVSS VL: DIVMTQTPASVEAAVGGAVTIKCQATQSIGNNLAWYQQKPGQPPKLLIYRASTLASGVPSRFKGSGSGTEFTLTISDLECADAATYYCQSYYYSSSITYHNAFGGGTEVVVKR | 1.04
Ab1 (antibody, human IgG1, kappa, N297A, V domains shown, rabbit/human chimeric antibody, made in HEK-293) VH: QSVKESGGRLVTPGTPLTLTCTVSGFSLSNYDMIWVRQAPGKGLESIGMIYDDGDTYYASWAKGRFTISKTSTTVDLKIISPTTEDTATYFCVKGVSNHWGPGTLVTVSS VL: DVVMTQTPASVEAAVGGTVTIKCQASQSISSYLAWYQQKPGQPPKLLIYSASTLASGVPSRFKGRGSGTEFTLTISDLECADAATYYCQSYDGSSGSSYGVGFGGGTEVVVKR | 2.38
Ab7 (antibody, human IgG1, kappa, N297A, V domains shown, rabbit/human chimeric antibody, made in HEK-293) VH: QSVEESGGRLVTPGTPLTLTCTVSGFSLSSYAMSWVRQAPGEGLEWIGIISDSGSTYYASWAKGRFTISKTSTTVDLRITSPTTEDTATYFCAREPEYGYDDYGDWVSDLWGQGTLVTVSS VL: DIVMTQTPASVEAAVGGTVTIKCQASQSISDYLSWYQQKPGQPPKLLIYRASTLASGVPSRFKGSGSGTQFTLTISDLECADAATYYCQSYYYSSSITYRNAFGGGTEVVVKR | 1.29
